Test system: IL-8
Assay: In vitro chemotaxis, inhibition v IL-8
Assay type: cell-based, human
Design: concentration or dose not given beside the values
Bridge positions count the residues as written; N and C are the ends. Square brackets hold non-standard residues; d marks the D form. Peptide text beside a SMILES is read from it. dDap = NC[C@@H](N)C(=O)O; Dap = NC[C@H](N)C(=O)O
Attribute measured: v IL-8 inhibition (%)
Please give a number only; it is taken to be in %.

molecule="CC[C@H](C)[C@@H]1NC(=O)[C@H](Cc2c[nH]c3ccccc23)NC(=O)[C@H](CCCCN)NC(=O)[C@H](CCC(N)=O)NC(=O)[C@H](CCCCN)NC(=O)[C@@H]2CCCN2C(=O)[C@H](CC(=O)O)NC(=O)[C@H](CC(C)C)NC(=O)[C@@H](NC(=O)[C@H](CC(=O)O)NC(C)=O)CSSC[C@@H](C(=O)N[C@H](CN)C(N)=O)NC(=O)[C@H](CCC(N)=O)NC1=O [Example 17] (Ac-DCLDPKQKWIQC[dDap]-NH2; disulfide 2-12)" attribute_measured="v IL-8 inhibition (%)" reported=15.5
molecule="CC[C@H](C)[C@@H]1NC(=O)[C@H](Cc2c[nH]c3ccccc23)NC(=O)[C@H](CCCCN)NC(=O)[C@H](CCC(N)=O)NC(=O)[C@H](CCCCN)NC(=O)[C@@H]2CCCN2C(=O)[C@H](CC(=O)O)NC(=O)[C@H](CC(C)C)NC(=O)[C@H](N)CSSC[C@@H](C(=O)N[C@@H](CN)C(N)=O)NC(=O)[C@H](CCC(N)=O)NC1=O [Example 35] (H-[dC]LDPKQKWIQC[Dap]-NH2; disulfide 1-11)" attribute_measured="v IL-8 inhibition (%)" reported=91.9
molecule="CC[C@H](C)[C@@H]1NC(=O)[C@@H](NC(=O)[C@H](Cc2c[nH]c3ccccc23)NC(=O)[C@@H](N)CCCCN)CSSC[C@@H](C(N)=O)NC(=O)[C@H](CCC(N)=O)NC1=O [Example 15, Lys-Trp-c(Cys-Ile-Gln-Cys)-NH2] (H-KWCIQC-NH2; disulfide 3-6)" attribute_measured="v IL-8 inhibition (%)" reported=10.5

Turning now to a further record.
Consider CC[C@H](C)[C@@H]1NC(=O)[C@H](Cc2c[nH]c3ccccc23)NC(=O)[C@H](CCCCN)NC(=O)[C@H](CCC(N)=O)NC(=O)[C@H](CCCCN)NC(=O)[C@@H](NC(=O)[C@@H]2CCCN2C(=O)[C@@H](N)CC(=O)O)CSSC[C@@H](C(N)=O)NC(=O)[C@H](CCC(N)=O)NC1=O [Example 40] (H-DPCKQKWIQC-NH2; disulfide 3-10) . Its measured v IL-8 inhibition (%) is 113.5

* * *

System: IL-8
Test: In vitro chemotaxis, inhibition v IL-8
Assay type: cell-based, human
Set-up: concentration or dose not given beside the values
Bridge positions count the residues as written; N and C are the ends. Peptide text beside a SMILES is read from it.
Attribute measured: v IL-8 inhibition (%)

Case CC[C@H](C)[C@@H]1NC(=O)[C@H](Cc2c[nH]c3ccccc23)NC(=O)[C@H](CCCCN)NC(=O)[C@H](CCC(N)=O)NC(=O)[C@@H](NC(=O)[C@H](CCCCN)NC(=O)[C@@H]2CCCN2)CSSC[C@@H](C(N)=O)NC(=O)[C@H](CCC(N)=O)NC1=O [Example 44] (H-PKCQKWIQC-NH2; disulfide 3-9) , IL-8, v IL-8 inhibition (%) recorded as 12.9%
